# Tested on: 521955-158-R2-J5-PDC complex spheroid growth, % test/control;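 note: spheroids exposed to agents for 7 days before readout; 100% = DMSO vehicle control viability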
# protocol.description: Anticancer human tumor 521955-158-R2-J5-PDC patient-derived pancreatic carcinoma cell line growth inhibition [Asc]
# recorded.conditions: second compound 0.0949 µM; first compound 0.316 µM; hits give low values
observed.property: viability, T/C (%)
Answer in %, number only, no unit symbol.

Recorded viability, T/C, per entry:
>>> recorded_value("C=CC(=O)N1CCN(c2nc(=O)n(-c3c(C)ccnc3C(C)C)c3nc(-c4c(O)cccc4F)c(F)cc23)C(C)C1 (centres undefined) + CCN1C(C(=O)NC23CCC(C(=O)O)(CC2)CC3)C(c2cccc(Cl)c2F)C2(C(=O)Nc3cc(Cl)ccc32)C12CCCCC2")
113
>>> recorded_value("C#Cc1c(F)ccc2cc(O)cc(-c3ncc4c(N5CC6CCC(C5)N6)nc(OCC56CCCN5CC(F)C6)nc4c3F)c12 (centres undefined) + CCN1C(C(=O)NC23CCC(C(=O)O)(CC2)CC3)C(c2cccc(Cl)c2F)C2(C(=O)Nc3cc(Cl)ccc32)C12CCCCC2")
44.4
>>> recorded_value("C=C(F)C(=O)N1CCN(c2nc(OCC3CCCN3C)nc3c2CCN(c2cccc4cccc(Cl)c24)C3)CC1CC#N (centres undefined) + CCN1C(C(=O)NC23CCC(C(=O)O)(CC2)CC3)C(c2cccc(Cl)c2F)C2(C(=O)Nc3cc(Cl)ccc32)C12CCCCC2")
71.4

Please look at the following compound next.
The reported viability, T/C value, 521955-158-R2-J5-PDC complex spheroid growth, % test/control, for O=C(c1ccc(F)c(F)c1Nc1ccc(I)cc1F)N1CC(O)([C@@H]2CCCCN2)C1 + CCN1C(C(=O)NC23CCC(C(=O)O)(CC2)CC3)C(c2cccc(Cl)c2F)C2(C(=O)Nc3cc(Cl)ccc32)C12CCCCC2 reads 43.1
